# assay target: T1, VEGF-121-His (inhouse production) (human, UniProt P15692 207-395)
# T1 construct: His-tagged human VEGF-A121 used in the ELISAs and (captured by an anti-His antibody) in SPR; also called hVEGF-A121; his VEGF; not shown: His tag
# T1 sequence: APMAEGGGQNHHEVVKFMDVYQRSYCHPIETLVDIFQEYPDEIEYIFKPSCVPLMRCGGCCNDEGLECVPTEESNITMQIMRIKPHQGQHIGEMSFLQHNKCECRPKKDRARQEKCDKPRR
# method description: SPR (Biacore), hVEGF-A121 captured by anti-His antibody, Fab injected, 25° C
recorded endpoint: Kd (nM)

binder	recorded endpoint	unit descriptor	reading
HF2-1 Fab fragment (Fab, V domains shown, Prior art antibody disclosed in EP3006465) VH: EVQLVESGGGLVQPGGSLRLSCAASNFVFRSHGMQWVRQAPGKGLEYVAGISSDGSWTGYGAAVEGRFTISRDDSKNTAYLQMNSLRAEDTAVYYCARDFSTGYGADSIDAWGQGTLVTVSS VL: DIQMTQSPSSLSASVGDRVTITCSGGSDSAYGYGWYQQKPGKAPKTLIYWDDKRPSGVPSRFSGSRSGTDFTLTISSLQPEDFATYYCGAWEYSGGVGIFGQGTKVEIKR	Kd	nM	0.279
VEGF-P1AE3521 Fab fragment (Fab, V domains shown) VH: EVQLVESGGGLVQPGGSLRLSCAASGFTFTNYAMTWVRQAPGKGLEWVSSIGSGGFYTYYADSVKGRFTISRDNWKNTLYLQMNSLRAEDTAVYYCAKGDNLFDSWGPGTLVTVSS VL: DIQMTQSPASLSASVGDRVTITCRASQSIYSSLNWYQQKPGKAPKLLIYASTLQSGVPSRFSGSASGTDFTLTISSLQPEDVATYYCQQYQNFPRTFGQGTKLEIKR	Kd	nM	0.032
VEGF-0114 Fab fragment (Fab, V domains shown, Fab with rabbit derived CLkappa and CH1; also called VEGR-0114 Fab) VH: EVQLVESGGGLVQPGGSLRLSCAASGFTFTNYAMTWVRQAPGKGLEWVSSIGSGGFYTYYADSVKGRFTISRDNSKNTLYLQMNSLRAEDTAVYYCAKGDNLFDSWGPGTLVTVSS VL: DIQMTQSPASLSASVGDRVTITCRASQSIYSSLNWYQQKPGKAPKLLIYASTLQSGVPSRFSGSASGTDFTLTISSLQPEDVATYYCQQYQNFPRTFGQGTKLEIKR	Kd	nM	0.05
VEGF-0113 Fab fragment (Fab, V domains shown, Variant of VEGF-0089 (G to P at position 6 of H-CDR2); Fab with rabbit derived CLkappa and CH1) VH: EVQLVESGGGLVQPGGSLRLSCAASGFTFTNYAMTWVRQAPGKGLEWVSSIGNGPGIYTYYADSVKGRFTISRDNSKNTLYLQMNSLRAEDTAVYYCAKGDNLFDSWGPGTLVTVSS VL: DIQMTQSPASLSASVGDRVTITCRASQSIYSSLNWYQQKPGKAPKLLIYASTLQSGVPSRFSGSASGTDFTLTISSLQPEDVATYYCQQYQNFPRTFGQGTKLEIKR	Kd	nM	0.022
HF2-5 Fab fragment (Fab, V domains shown, Prior art antibody disclosed in EP3006465) VH: EVQLVESGGGLVQPGGSLRLSCAASGFMIRSHGMQWVRQAPGKGLEYVAGISSDGSWARHSAAVEGRFTISRDDSKNTAYLQMNSLRAEDTAVYYCARDFSTGYGADSIDAWGQGTLVTVSS VL: DIQMTQSPSSLSASVGDRVTITCSGGSDSAYGYGWYQQKPGKAPKTLIYWDDKRPSGVPSRFSGSRSGTDFTLTISSLQPEDFATYYCGAWEYSGGVGIFGQGTKVEIKR	Kd	nM	0.052
VEGF-0089 Fab fragment (Fab, V domains shown, also called antibody VEGF-0089) VH: EVQLVESGGGLVQPGGSLRLSCAASGFTFTNYAMTWVRQAPGKGLEWVSSIGNGGGIYTYYADSVKGRFTISRDNSKNTLYLQMNSLRAEDTAVYYCAKGDNLFDSWGPGTLVTVSS VL: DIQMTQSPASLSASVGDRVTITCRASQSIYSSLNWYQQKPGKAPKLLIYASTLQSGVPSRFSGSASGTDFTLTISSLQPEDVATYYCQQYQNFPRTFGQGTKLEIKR	Kd	nM	0.143
VEGF-P1AD8675 Fab fragment (Fab, V domains shown) VH: EVQLVESGGGLVQPGGSLRLSCAASGFTFTNYAMTWVRQAPGKGLEWVSSIGNGGGIYTYYADSVKGRFTISRDNWKNTLYLQMNSLRAEDTAVYYCAKGDNLFDSWGPGTLVTVSS VL: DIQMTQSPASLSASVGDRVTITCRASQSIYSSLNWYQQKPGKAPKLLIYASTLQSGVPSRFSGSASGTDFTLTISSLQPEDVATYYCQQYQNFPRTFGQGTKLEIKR	Kd	nM	0.088
HF2-11 Fab fragment (Fab, V domains shown, Prior art antibody disclosed in EP3006465) VH: EVQLVESGGGLVQPGGSLRLSCAASGFLIRSHGMQWVRQAPGKGLEYVAGISSDGSWVKVAAAVEGRFTISRDDSKNTAYLQMNSLRAEDTAVYYCARDFSTGYGADSIDAWGQGTLVTVSS VL: DIQMTQSPSSLSASVGDRVTITCSGGSSEPLGYGWYQQKPGKAPKTLIYWDDKRPSGVPSRFSGSRSGTDFTLTISSLQPEDFATYYCGAWEYSGGVGIFGQGTKVEIKR	Kd	nM	0.032
HF2-9 Fab fragment (Fab, V domains shown, Prior art antibody disclosed in EP3006465) VH: EVQLVESGGGLVQPGGSLRLSCAASMFRIRSHGMQWVRQAPGKGLEYVAGISSDGSWFRVAAAVEGRFTISRDDSKNTAYLQMNSLRAEDTAVYYCARDFSTGYGADSIDAWGQGTLVTVSS VL: DIQMTQSPSSLSASVGDRVTITCSGGSMEPLGYGWYQQKPGKAPKTLIYWDDKRPSGVPSRFSGSRSGTDFTLTISSLQPEDFATYYCGAWEYSGGVGIFGQGTKVEIKR	Kd	nM	0.024
VEGF-P1AE3520 Fab fragment (Fab, V domains shown) VH: EVQLVESGGGLVQPGGSLRLSCAASGFTFTNYAMTWVRQAPGKGLEWVSSIGNGPGIYTYYADSVKGRFTISRDNWKNTLYLQMNSLRAEDTAVYYCAKGDNLFDSWGPGTLVTVSS VL: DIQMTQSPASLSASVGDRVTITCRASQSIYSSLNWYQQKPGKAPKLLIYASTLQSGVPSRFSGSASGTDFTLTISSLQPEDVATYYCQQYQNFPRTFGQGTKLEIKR	Kd	nM	0.031
